All values here come from patent US11357779B2.

# TEST: Noncompartmental pharmacokinetic parameters (Cmax, Tmax, AUC, Racc) in QD and BID cohorts of Form B
# Format: in vivo, human
# TEST CONDITIONS: human, plasma, oral, 100 mg, Cohort 6, 100 mg BID of Form B, Day 1; read-out: Tmax, Median
QUANTITY KIND: Tmax (h)
Provide only the numeric value, understood in h.

Query: Which Tmax is listed for CC(C)N1CCN(c2ccc(Nc3ncc4cc5n(c4n3)C3(CCCCC3)CNC5=O)nc2)CC1 ?
Reply: 3

* * *

# TEST: Apparent volume of distribution (Vd/F)
# Type: in vivo
# TEST CONDITIONS: human, plasma, oral; 200 mg QD of compound II
QUANTITY KIND: Vd/F (L)
// note: answer is a bare numeric in L

Query: Requested read-out: Vd/F. Entry: CC(C)N1CCN(c2ccc(Nc3ncc4cc5n(c4n3)C3(CCCCC3)CNC5=O)nc2)CC1
Reply: 15200

* * *

# TEST: Noncompartmental pharmacokinetic parameters (Cmax, Tmax, AUC, Racc) in QD and BID cohorts of Form B
# Type: in vivo, human
# TEST CONDITIONS: human, plasma, oral, 200 mg, Compound III; 200 mg BID of Form B; Cohort 8; Day 29; read-out: AUClast (Mean)
QUANTITY KIND: AUC(0-t) (ng·h/mL)
Give the number; ng·h/mL is assumed, so skip it.

Query: Which AUC(0-t) value is on record for O=C1NCC2(CCCCC2)n2c1cc1cnc(Nc3ccc(N4CCNCC4)cn3)nc12 ?
Reply: 22

* * *

# TEST: Plasma concentration versus time of Compound I and metabolite Compound III in patients dosed QD or BID with Form B of Compound II plus fulvestrant
# Type: in vivo, human
# TEST CONDITIONS: human, plasma, oral, 200 mg, Cohort 8, 200 mg BID of Form B, Day 29, 3.0 h; read-out: Compound I Concentration, Min
QUANTITY KIND: concentration at 3 h (ng/mL)
Write the value in ng/mL as a bare number.

Query: Would you kindly share the measured concentration at 3 h for CC(C)N1CCN(c2ccc(Nc3ncc4cc5n(c4n3)C3(CCCCC3)CNC5=O)nc2)CC1 ?
Reply: 7.49

* * *

# TEST: Steady-state AUC0-24,ss, (AUC0-24,ss)/dose, half-life and time to steady state: Compound I versus palbociclib, ribociclib, abemaciclib
# Format: in vivo, human
# TEST CONDITIONS: human, plasma, oral; 650 mg QD of Form B of Compound II, Day 29; read-out: Mean AUC0-24,ss
QUANTITY KIND: AUC(0-t)
# output: numeric value plus its unit

Query: Fill in the blank: the reported AUC(0-t) of CC(C)N1CCN(c2ccc(Nc3ncc4cc5n(c4n3)C3(CCCCC3)CNC5=O)nc2)CC1 [Compound I] is ____.
Reply: 956 ng·h/mL

* * *

# TEST: Plasma concentration versus time of Compound I and metabolite Compound III in patients dosed QD or BID with Form B of Compound II plus fulvestrant
# Assay type: in vivo, human
# TEST CONDITIONS: human, plasma, oral, 100 mg, 100 mg BID of Form B, Day 1, 1.0 h, Median; read-out: Compound I Concentration
# From the text: Patients were enrolled into 1 of 2 parallel, independently operating, dose-escalation dosing cohorts with Form B of Compound II administered continuously either once daily (QD) or twice daily (BID) with food with fixed-dose fulvestrant (intramuscularly every 14 days for the first three injections and then every 28 days). Pre- or perimenopausal patients also received goserelin for the duration of study treatment. […]
QUANTITY KIND: concentration at 1 h (ng/mL)
Value expressed in ng/mL; do not type the unit.

Query: Param item = CC(C)N1CCN(c2ccc(Nc3ncc4cc5n(c4n3)C3(CCCCC3)CNC5=O)nc2)CC1 [Compound I] ; retrieve measured concentration at 1 h.
Reply: 2.6
